Just for reference, patent US9181234B2 is where these values come from.

- measurement_notes: physchem
- condition_details: pH 9, aqueous buffer, kinetic from dmso stock, Max Solubility
measured_quantity: solubility at 24 h (µg/mL)
API: value field is a number in µg/mL; no unit string.

CCNC(=O)Nc1nc2cc(-c3csc(N4CCC(CC)(C(=O)O)CC4)n3)cc(-c3ccccn3)c2s1    400
CCNC(=O)Nc1nc2cc(-c3cnc(N4CCC(CC)(C(=O)O)CC4)cn3)cc(-c3nccc(C)n3)c2s1    100
CCNC(=O)Nc1nc2cc(-c3cnc(N4CCC(C)(C(=O)O)CC4)nc3)cc(-c3cncc(OC)n3)c2s1    400

Below: the item to evaluate.
INPUT: Retrieve solubility at 24 h measured for CCNC(=O)Nc1nc2cc(-c3cnc(N4CCC(C)(C(=O)O)CC4)nc3)cc(-c3ncc(F)cn3)c2s1 and print it.
OUTPUT: 100

====

Here the recorded solubility at 24 h is given for each entry.
- measurement_notes: physchem
- condition_details: pH 7.4, aqueous buffer, kinetic from dmso stock, Solubility (pH 7.4)
State the answer as a number, implicitly in µg/mL.

Please review the entries below; each comes with its answer.
CCNC(=O)Nc1nc2cc(-c3cnc(N4CCC(C)(C(=O)O)CC4)nc3)cc(-c3ccc(CN4CCC(F)(F)CC4)cn3)c2s1    400
CCNC(=O)Nc1nc2cc(-c3cnc(N4CCC(C)(C(=O)O)CC4)nc3)cc(-c3ccc(CC#N)cn3)c2s1    200

INPUT: Give the reported solubility at 24 h for this compound. CCNC(=O)Nc1nc2cc(-c3cnc(N4CCC(CC)(C(=O)O)CC4)nc3)cc(-c3ncccc3C#N)c2s1
OUTPUT: 12.5

INPUT: Report solubility at 24 h for CCNC(=O)Nc1nc2cc(-c3cnc(N4CCC(C)(C(=O)O)CC4)nc3)cc(-c3cnc(CC)cn3)c2s1
OUTPUT: 200

====

Here the recorded AUC is given for each entry.
- measurement_notes: Pharmacokinetic assay, IV and oral PK profile, mouse
- Format: in vivo
- condition_details: po, single peroral dose 3 mg/kg, plasma, read-out: AUCoral
Your answer is read as ng·h/mL, so omit the unit and give the number.

Some compounds with known AUC results, for comparison:
CCNC(=O)Nc1nc2cc(-c3cnc(N4CCC(C)(C(=O)O)CC4)nc3)cc(/C(C)=N/OC)c2s1    3400
CCNC(=O)Nc1nc2cc(-c3cnc(N4CCC(CC)(C(=O)O)CC4)nc3)cc(-c3ccccn3)c2s1    12500
CCNC(=O)Nc1nc2cc(-c3ccc(N4CCC(C)(C(=O)O)CC4)nc3)cc(-c3ccccn3)c2s1    2500

Please examine the following record next.
INPUT: Could you please provide reported AUC for C=CCC1(C(=O)O)CCN(c2ncc(-c3cc(-c4ccccn4)c4sc(NC(=O)NCC)nc4c3)cn2)CC1 ? Thanks!
OUTPUT: 16500

====

- measurement_notes: physchem
- condition_details: pH 7.4, aqueous buffer, kinetic from dmso stock, Solubility (pH 7.4)
Reported values of solubility at 24 h for individual entries

Here is how some compounds turned out for solubility at 24 h.
CCNC(=O)Nc1nc2cc(-c3cnc(N4CCC(C)(C(=O)O)CC4)nc3)cc(-c3cccc(C#N)n3)c2s1    400 µg/mL
CCNC(=O)Nc1nc2cc(-c3cnc(N4CCC(C)(C(=O)O)CC4)nc3)cc(-c3csc(OC)n3)c2s1    ≥ 800 µg/mL
CCNC(=O)Nc1nc2cc(-c3cnc(N4CCC(C)(C(=O)O)CC4)nc3)c(OC)cc2s1    ≥ 800 µg/mL
CCNC(=O)Nc1nc2cc(-c3cnc(N4CCC(C)(C(=O)O)CC4)nc3)cc(-c3cnc(C)cn3)c2s1    ≥ 800 µg/mL
CCNC(=O)Nc1nc2cc(-c3cnc(N4CCC(CC)(C(=O)O)CC4)nc3)cc(-c3ccc(F)cc3)c2s1    400 µg/mL

INPUT: Entry CCNC(=O)Nc1nc2cc(-c3cnc(N4CCC(C)(C(=O)O)CC4)nc3)cc(C3CCOCC3)c2s1 needs its solubility at 24 h filled in; supply it.
OUTPUT: ≥ 800 µg/mL

INPUT: Give recorded solubility at 24 h. CCNC(=O)Nc1nc2cc(-c3cnc(N4CCC(C)(C(=O)O)CC4)nc3)cc(-c3cc(C)ncn3)c2s1
OUTPUT: ≥ 800 µg/mL

INPUT: Supply solubility at 24 h value. Item: CCNC(=O)Nc1nc2cc(-c3cnc(N4CCC(C)(C(=O)NS(C)(=O)=O)CC4)nc3)cc(-c3ccccn3)c2s1
OUTPUT: ≥ 800 µg/mL

INPUT: Give solubility at 24 h for the following compound: CCNC(=O)Nc1nc2cc(-c3cnc(N4CCC(C)(C(=O)O)CC4)nc3OC)cc(-c3ccccn3)c2s1
OUTPUT: 50 µg/mL

INPUT: Return value of solubility at 24 h for input CCNC(=O)Nc1nc2cc(-c3cnc(N4CCC(C(=O)O)(c5ccccc5)CC4)nc3)cc(-c3ccccn3)c2s1 , no commentary.
OUTPUT: 12.5 µg/mL

INPUT: Write down solubility at 24 h measured for item CCNC(=O)Nc1nc2cc(-c3cnc(N4CCC(C)(C(=O)O)CC4)nc3)cc(-c3nccc(C)n3)c2s1
OUTPUT: ≥ 800 µg/mL

INPUT: Return solubility at 24 h for the following compound: CCNC(=O)Nc1nc2cc(-c3cnc(N4CCC(CC)(C(=O)O)CC4)nc3)cc(-c3ncnc4[nH]ccc34)c2s1
OUTPUT: ≥ 800 µg/mL

INPUT: Provide one value: measured solubility at 24 h of CCNC(=O)Nc1nc2cc(-c3cnc(N4CCC(C)(C(=O)O)CC4)nc3)cc(-c3cc(C)ccn3)c2s1
OUTPUT: 400 µg/mL

INPUT: State, in one line, measured solubility at 24 h of CCNC(=O)Nc1nc2cc(-c3cnc(N4CCC(C)(C(=O)O)CC4)nc3)cc(C#Cc3cccnc3)c2s1
OUTPUT: ≥ 800 µg/mL

====

solubility at 24 h for assorted molecules
- measurement_notes: physchem
- condition_details: pH 7.4, aqueous buffer, kinetic from dmso stock, Solubility Range

# count of solved cases: 3
CCNC(=O)Nc1nc2cc(-c3cnc(N4CCC(C)(C(=O)O)CC4)nc3)cc(-c3ncc(F)cn3)c2s1    12.5 to 400 µg/mL
CCNC(=O)Nc1nc2cc(-c3cnc(N4CCC(C)(C(=O)O)CC4)nc3)cc(-c3cnc(N(C)C)s3)c2s1    12.5 to 400 µg/mL
CCNC(=O)Nc1nc2cc(-c3cnc(N4CCC(C)(C(=O)OCC)CC4)nc3)c(OC)cc2s1    < 12.5 µg/mL

Let's switch to this molecule now.
INPUT: Consider the molecule CCNC(=O)Nc1nc2c(F)c(-c3cnc(N4CCC(C)(C(=O)O)CC4)nc3)cc(-c3ccccn3)c2s1 and give its recorded solubility at 24 h.
OUTPUT: > 800 µg/mL

====

- measurement_notes: physchem
- condition_details: pH 7.4, aqueous buffer, kinetic from dmso stock, Solubility Range
measured_quantity: solubility at 24 h

CCNC(=O)Nc1nc2cc(-c3cnc(N4CCC(CC(F)(F)F)(C(=O)O)CC4)nc3)cc(-c3ccccn3)c2s1    > 800 µg/mL

INPUT: Return solubility at 24 h for the following molecule: C=CCC1(C(=O)O)CCN(c2ncc(-c3cc(-c4ccccn4)c4sc(NC(=O)NCC)nc4c3)cn2)CC1
OUTPUT: > 800 µg/mL

INPUT: Consider the molecule CCNC(=O)Nc1nc2cc(-c3cnc(N4CCC(CC)(C(=O)O)CC4)nc3)cc(-c3ncccn3)c2s1 . State its measured solubility at 24 h.
OUTPUT: 12.5 to 400 µg/mL

INPUT: Give the value of solubility at 24 h reported for the following: CCNC(=O)Nc1nc2cc(-c3cnc(N4CCC(C)(C(=O)O)CC4)nc3)cc(-c3ncccc3C#N)c2s1
OUTPUT: 12.5 to 400 µg/mL

INPUT: Give solubility at 24 h for the following molecule: CCNC(=O)Nc1nc2cc(-c3cnc(N4CCC(C)(C(=O)O)CC4)nc3)cc(/C=N/OCC)c2s1
OUTPUT: > 800 µg/mL

INPUT: Tell us which solubility at 24 h value is on record for CCNC(=O)Nc1nc2cc(-c3cnc(N4CCC(C)(C(=O)O)CC4)c(F)c3)cc(-c3ccccn3)c2s1
OUTPUT: 12.5 to 400 µg/mL

INPUT: Quick one: give measured solubility at 24 h for CCNC(=O)Nc1nc2cc(-c3cnc(N4CCC(CC)(C(=O)O)CC4)nc3)ccc2s1
OUTPUT: 12.5 to 400 µg/mL

INPUT: Name the recorded solubility at 24 h of the molecule listed here: CCNC(=O)Nc1nc2cc(-c3cnc(N4CCC(C)(C(=O)O)CC4)nc3)cc(-c3cn[nH]c3)c2s1
OUTPUT: > 800 µg/mL

INPUT: Input CCNC(=O)Nc1nc2cc(-c3cnc(N4CCC(C)(C(=O)O)CC4)nc3)cc(NC(=O)c3ccccn3)c2s1 , output reported solubility at 24 h.
OUTPUT: > 800 µg/mL

INPUT: Identify solubility at 24 h associated with the molecule CCNC(=O)Nc1nc2cc(-c3cnc(N4CCC(C)(C(=O)O)CC4)nc3)cc(-c3ccc(CC#N)cn3)c2s1
OUTPUT: 12.5 to 400 µg/mL

INPUT: Tell me measured solubility at 24 h for CCNC(=O)Nc1nc2cc(-c3cnc(N4CCC(C)(C(=O)O)CC4)nc3)cc(-c3ccncn3)c2s1 please.
OUTPUT: > 800 µg/mL

INPUT: Report solubility at 24 h, nothing else, for this molecule: CCNC(=O)Nc1nc2cc(-c3cnc(N4CCC(C)(C(=O)O)CC4)nc3)cc(/C=N/OC)c2s1
OUTPUT: > 800 µg/mL

INPUT: Retrieve solubility at 24 h measured for CCNC(=O)Nc1nc2cc(-c3cnc(N4CCC(C)(C(=O)O)CC4)nc3)cc(-c3nc(CO)cs3)c2s1 and print it.
OUTPUT: > 800 µg/mL

INPUT: State, in one line, measured solubility at 24 h of CCNC(=O)Nc1nc2cc(-c3cnc(N4CCC(CC)(C(=O)O)CC4)nc3)cc(-c3nccc(OC)n3)c2s1
OUTPUT: > 800 µg/mL

INPUT: Report solubility at 24 h, nothing else, for this molecule: CCNC(=O)Nc1nc2cc(-c3ccc(C4=NOC(C)(C(=O)OCC)C4)nc3)cc(-c3ccccn3)c2s1 (centres unmarked)
OUTPUT: < 12.5 µg/mL

INPUT: Kindly indicate its recorded solubility at 24 h. Item: CCNC(=O)Nc1nc2cc(-c3cnc(N4CCC(C)(C(=O)O)CC4)nc3)cc(C#CC3CCCC3)c2s1
OUTPUT: > 800 µg/mL

INPUT: State its solubility at 24 h: CCNC(=O)Nc1nc2cc(-c3cnc(N4CCC(C)(C(=O)O)CC4)nc3)cc(CN3CCOCC3)c2s1
OUTPUT: > 800 µg/mL
